# Test system: biotinyl-Val-oxazolone
# Experiment: self-aminoacylation, catalytic enhancement (BVO) (fold over background); higher = more active; k-Seq, kA / k0A0; sequences stand for … in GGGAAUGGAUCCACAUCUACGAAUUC…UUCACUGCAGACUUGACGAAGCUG
Variants at the floor of the assay were thinned out.
Rule: self-aminoacylation of 1 or more gives T; anything lower gives F.

[[record]]
record_sequence = "AAGUUUGCUAAUAUUCUCAAG [Fam3.1 aminoacylation ribozyme variant]"
classification = "T"

[[record]]
record_sequence = "CUACUUCAAACAAUUGGCCUG [Fam1A.1 aminoacylation ribozyme variant]"
classification = "T"

[[record]]
record_sequence = "AAGUUUUCUAAUAGUCGCAAG [Fam3.1 aminoacylation ribozyme variant]"
classification = "T"

[[record]]
record_sequence = "AAUCACUUAGGUCAUCGGGUG [Fam2.2 aminoacylation ribozyme variant]"
classification = "T"

[[record]]
record_sequence = "AUUCACCUUGGUCAUCGAGUG [Fam2.2 aminoacylation ribozyme variant]"
classification = "T"

[[record]]
record_sequence = "AUUACCCUGGUCAUCGCCUGA [Fam2.1 aminoacylation ribozyme variant]"
classification = "T"

[[record]]
record_sequence = "CUACUGCAAACAAUCGUUCUG [Fam1A.1 aminoacylation ribozyme variant]"
classification = "F"

[[record]]
record_sequence = "CCACACUUCAAGCAAUCAGUA [Fam1B.1 aminoacylation ribozyme variant]"
classification = "F"

[[record]]
record_sequence = "AAGUUUGCUAACAAUCGCAAG [Fam3.1 aminoacylation ribozyme variant]"
classification = "F"

[[record]]
record_sequence = "CUACUUCAGACAAUCGGACUG [Fam1A.1 aminoacylation ribozyme variant]"
classification = "F"

[[record]]
record_sequence = "CUCCUUCAAACAAUCCGUCUG [Fam1A.1 aminoacylation ribozyme variant]"
classification = "F"

[[record]]
record_sequence = "AAGUUUCCUAAUAGUCGCUAG [Fam3.1 aminoacylation ribozyme variant]"
classification = "T"

[[record]]
record_sequence = "AUUACUCUGCUCAUCGAGUGA [Fam2.1 aminoacylation ribozyme variant]"
classification = "T"

[[record]]
record_sequence = "AUGUUUGCUGAUAGUCGCAAG [Fam3.1 aminoacylation ribozyme variant]"
classification = "T"

[[record]]
record_sequence = "AUUCACCUAGGUCACCGGGUC [Fam2.2 aminoacylation ribozyme variant]"
classification = "T"

[[record]]
record_sequence = "CCACACUUCACGCAAUCGCUC [Fam1B.1 aminoacylation ribozyme variant]"
classification = "T"

[[record]]
record_sequence = "AAGUUUGCUAAUAGUCGCCGG [Fam3.1 aminoacylation ribozyme variant]"
classification = "T"

[[record]]
record_sequence = "CCACACCUUAAGCAAUCGGUC [Fam1B.1 aminoacylation ribozyme variant]"
classification = "T"

[[record]]
record_sequence = "AUUGACAUAGGUCAUCGGGUG [Fam2.2 aminoacylation ribozyme variant]"
classification = "T"

[[record]]
record_sequence = "AUUACCCUGGUCCGCGAGUGA [Fam2.1 aminoacylation ribozyme variant]"
classification = "T"

[[record]]
record_sequence = "UUUCACCUAGGUCAGCGGGUG [Fam2.2 aminoacylation ribozyme variant]"
classification = "T"


###

# Tested on: biotinyl-Phe-oxazolone
# Experiment: self-aminoacylation, catalytic enhancement (BFO) (fold over background); higher = more active; k-Seq, kA / k0A0; sequences stand for … in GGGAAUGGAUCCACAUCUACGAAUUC…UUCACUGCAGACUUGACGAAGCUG
Fewer inactive variants are shown than the library holds.
Measured property: self-aminoacylation

[[record]]
record_sequence = "AUACACCUAGGUCAUCGGGUA [Fam2.2 aminoacylation ribozyme variant]"
measured_property = "self-aminoacylation"
observed_result = 8.32

[[record]]
record_sequence = "AUUAGCCUGGUCAUCGCGUGA [Fam2.1 aminoacylation ribozyme variant]"
measured_property = "self-aminoacylation"
observed_result = 165

[[record]]
record_sequence = "AUUCACCUAGGUCUUCGGGGG [Fam2.2 aminoacylation ribozyme variant]"
measured_property = "self-aminoacylation"
observed_result = 12

[[record]]
record_sequence = "ACUCACCUAGGGCAUCGGGUG [Fam2.2 aminoacylation ribozyme variant]"
measured_property = "self-aminoacylation"
observed_result = 18.2

[[record]]
record_sequence = "CGACUUCUAACAAUCGGUCUG [Fam1A.1 aminoacylation ribozyme variant]"
measured_property = "self-aminoacylation"
observed_result = 0.961

[[record]]
record_sequence = "CAACUUCAAACAAUCGGUCAG [Fam1A.1 aminoacylation ribozyme variant]"
measured_property = "self-aminoacylation"
observed_result = 19.5

[[record]]
record_sequence = "AAGAUUGCUUAUAGUCGCAAG [Fam3.1 aminoacylation ribozyme variant]"
measured_property = "self-aminoacylation"
observed_result = 2.44

[[record]]
record_sequence = "GCACACUUCAAACAAUCGGUC [Fam1B.1 aminoacylation ribozyme variant]"
measured_property = "self-aminoacylation"
observed_result = 92.2

